system-tested: T1, mouse IL-12Rβ2 (mouse, UniProt P97378 24-874)
T1 construct: Expressed on HEK293T cells transiently transfected with a pcDNA3 plasmid (Genscript clone OMu01776); also called mIL-12RB2; NP_032380.1
T1 sequence: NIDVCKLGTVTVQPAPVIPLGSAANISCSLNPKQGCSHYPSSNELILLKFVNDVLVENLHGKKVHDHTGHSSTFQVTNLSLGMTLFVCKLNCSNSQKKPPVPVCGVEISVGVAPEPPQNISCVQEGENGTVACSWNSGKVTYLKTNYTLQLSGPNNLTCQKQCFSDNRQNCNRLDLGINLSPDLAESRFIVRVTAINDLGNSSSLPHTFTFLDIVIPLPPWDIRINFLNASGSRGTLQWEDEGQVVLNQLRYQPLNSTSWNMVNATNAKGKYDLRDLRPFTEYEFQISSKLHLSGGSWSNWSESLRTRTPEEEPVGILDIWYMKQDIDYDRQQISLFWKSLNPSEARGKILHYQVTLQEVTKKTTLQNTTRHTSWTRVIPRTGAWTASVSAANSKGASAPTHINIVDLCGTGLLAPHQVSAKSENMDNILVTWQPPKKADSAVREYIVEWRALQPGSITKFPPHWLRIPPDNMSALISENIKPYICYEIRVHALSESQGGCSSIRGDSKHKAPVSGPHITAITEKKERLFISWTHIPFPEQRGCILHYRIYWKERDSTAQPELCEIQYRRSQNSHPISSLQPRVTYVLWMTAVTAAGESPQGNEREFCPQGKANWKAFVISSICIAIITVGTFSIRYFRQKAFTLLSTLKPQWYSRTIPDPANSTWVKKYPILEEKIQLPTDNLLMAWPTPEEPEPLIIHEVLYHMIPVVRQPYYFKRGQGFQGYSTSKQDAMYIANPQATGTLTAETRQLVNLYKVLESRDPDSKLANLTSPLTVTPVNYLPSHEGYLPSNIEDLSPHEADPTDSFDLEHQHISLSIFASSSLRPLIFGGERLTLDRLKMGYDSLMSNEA
experiment: flow cytometry, P.E. on transfected HEK293T cells
readout-label: % cells bound (%)
Give a bare numeral; the unit % is implied.

A selection of reference data follows.
{"columns": ["binder", "% cells bound, %"],
 "data": [
  ["anti-IL-12Rβ2 VHH clone 3CRHM35 (VHH, not shown: small tags and cut ends, periplasmic extract; also called 21057) VHH: QVQLQESGGGLVQAGGSLRLSCAASGRTFSNYAMAWFRQAPGTEREFVAGLSGSGGDTAFYDNSVMGRFTISRDSAKNTMWLQINNLKPEDTAVYYCAAATHVVVNYGLVRRRGTYDYWGQGTQVTVSS", 16],
  ["anti-IL-12Rβ2 VHH clone 3CAHM11 (VHH, not shown: small tags and cut ends, periplasmic extract) VHH: QVQLQESGGGLVQAGGSLRLSCAASGRTFNNYAMAWFRQAPGKEREFIAAITRSDTTLYIDSVKGRFTISRDNAKNTVALQMNSLKPEDTAVYYCAAGMPYSYSDYPRDSKYDYWGRGTQVTVSS", 7.51],
  ["anti-IL-12Rβ2 VHH clone 3CRHM49 (VHH, not shown: small tags and cut ends, periplasmic extract; also called 21058) VHH: QVQLQESGGGLVQAGGSLRLSCAASGRTFSNYAMAWFRQAPGTEREFVAGLSGSGGDTAFYDNSVMGRFTISRDSAKNTMWLQINNLKPEDTAVYYCAAATHVVVSYGLVRRRGTYDYWGQGTQVTVSS", 17.1]
]}

Moving on to another binder below.
QUERY: Query (binder): anti-IL-12Rβ2 VHH clone 3CRHM14 (VHH, not shown: small tags and cut ends, periplasmic extract) VHH: QVQLQESGGGLVQAGGSLRLSCAASGRTFSNYAMAWFRQAPGTEREFVAGLSGSGGDTEFYDDSVKGRFAISRDSAKNTVWLQMNSLKPEDTAVYYCAAATHVVVHYGLVRRRGTYDYWGQGTQVTVSS ; field requested: % cells bound
RESULT: 18.6
